target-desc: Alpha-1A adrenergic receptor (Homo sapiens, UniProt P35348)
Sequence (P35348 whole entry): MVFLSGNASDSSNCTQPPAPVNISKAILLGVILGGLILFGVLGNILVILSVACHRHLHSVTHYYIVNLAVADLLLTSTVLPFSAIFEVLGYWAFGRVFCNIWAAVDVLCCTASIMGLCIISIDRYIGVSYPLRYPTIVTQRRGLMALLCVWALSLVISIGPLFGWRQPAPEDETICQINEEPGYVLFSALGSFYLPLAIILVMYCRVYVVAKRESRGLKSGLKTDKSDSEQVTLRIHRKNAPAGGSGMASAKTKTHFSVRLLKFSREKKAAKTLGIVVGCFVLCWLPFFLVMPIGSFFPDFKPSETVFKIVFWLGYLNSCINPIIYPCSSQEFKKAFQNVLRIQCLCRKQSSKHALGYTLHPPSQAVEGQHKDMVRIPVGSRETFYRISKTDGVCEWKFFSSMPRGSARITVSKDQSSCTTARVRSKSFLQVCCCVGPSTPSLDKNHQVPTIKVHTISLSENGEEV
measured-metric: Ki

>>> df
                                   compound                               target_desc  measurement
0  COc1ccc(OC)c(C(O)C(C)N)c1 (stereo unspecified)  Alpha-1A adrenergic receptor (Homo sapiens, UniProt P35348)      > 10 µM

# credit: BindingDB's records for doi:10.1006/bbrc.1993.2130
